target: Heparanase (Homo sapiens, UniProt Q9Y251); experiment: Inhibition of recombinant heparanase catalytic stie (unknown origin) expressed in Escherichia coli BL21 (DE3)
Property: pIC50; scope: individual molecules
Formally, pIC50 is defined as -log10 of the concentration c, with c in mol/L.

Please review the following examples before continuing.
> print(dat)
                                   molecule  reported.result
1  CCCCCCCCCCCCCCCC(=O)C1=C(O)[C@@H](CO)OC1=O             4.77
2  O=C(O)c1ccccc1C(=O)c1ccc(Oc2ccccc2)c([N+](=O)[O-])c1             6.00

## Task Requested read-out: pIC50. Entry: CCCCCCCCCCCCCCCc1cc(O[C@@H]2OC(C(=O)O)[C@H](O)[C@H](O)C2O)cc(O)c1C(=O)Oc1cc(C)c(C(=O)O)c(O)c1 (some centres undefined)
## Result 5.00

====

Target: UniProt:Q9Y251
Sequence (Q9Y251 whole entry): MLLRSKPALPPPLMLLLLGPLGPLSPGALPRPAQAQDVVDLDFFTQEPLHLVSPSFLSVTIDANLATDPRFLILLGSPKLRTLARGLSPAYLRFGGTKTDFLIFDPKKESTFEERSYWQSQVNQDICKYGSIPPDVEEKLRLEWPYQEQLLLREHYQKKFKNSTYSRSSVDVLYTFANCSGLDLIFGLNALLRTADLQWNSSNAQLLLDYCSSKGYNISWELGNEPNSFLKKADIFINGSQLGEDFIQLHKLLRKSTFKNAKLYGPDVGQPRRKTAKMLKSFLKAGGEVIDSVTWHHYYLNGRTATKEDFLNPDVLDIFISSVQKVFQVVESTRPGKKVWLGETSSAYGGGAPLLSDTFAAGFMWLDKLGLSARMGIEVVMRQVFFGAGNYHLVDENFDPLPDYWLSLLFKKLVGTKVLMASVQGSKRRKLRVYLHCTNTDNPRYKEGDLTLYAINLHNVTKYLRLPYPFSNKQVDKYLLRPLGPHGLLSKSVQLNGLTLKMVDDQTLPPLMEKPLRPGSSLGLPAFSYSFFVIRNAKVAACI
Experiment: Binding affinity to recombinant heparanase catalytic stie (unknown origin) expressed in Escherichia coli BL21 (DE3) by surface plasmon resonance assay
pKd: −log10 of the molar value.
assay_readout: pKd

## Task Requested read-out: pKd. Entry: CCN(CC)Cc1cc(Nc2ccnc3cc(Cl)ccc23)ccc1Br
## Result < 3.00

## Task Requested read-out: pKd. Entry: COc1cc(N)c(Cl)cc1C(=O)NC1CCN(CCCOc2ccc(F)cc2)CC1OC (stereo not given) [CISAPRIDE]
## Result < 3.00

## Task Requested read-out: pKd. Entry: O=C(CN1CCCCC1)Nc1cc(Nc2ccnc3cc(Cl)ccc23)cc(C(=O)N2CCOCC2)c1
## Result < 3.00

## Task Requested read-out: pKd. Entry: COc1ccc([C@@H]2CC(=O)c3c(O)cc(O[C@@H]4O[C@H](CO[C@@H]5O[C@@H](C)[C@H](O)[C@@H](O)[C@H]5O)[C@@H](O)[C@H](O)[C@H]4O)cc3O2)cc1O [HESPERIDIN]
## Result < 3.00

## Task Requested read-out: pKd. Entry: CCN(CC)Cc1cc(Nc2ccnc3cc(Cl)ccc23)ccc1O
## Result 4.28

## Task Requested read-out: pKd. Entry: C[C@@H]1O[C@@H](O[C@H]2[C@H](Oc3cc(O)c4c(c3)O[C@H](c3ccc(O)cc3)CC4=O)O[C@H](CO)[C@@H](O)[C@@H]2O)[C@H](O)[C@H](O)[C@H]1O [NARINGIN]
## Result < 3.00

## Task Requested read-out: pKd. Entry: CN(C)CCCNC(=O)c1cc(NC(=O)CN2CCCCC2)cc(Nc2ccnc3cc(Cl)ccc23)c1
## Result < 3.00

## Task Requested read-out: pKd. Entry: COc1ccc(CCN2CCC(Nc3nc4ccccc4n3Cc3ccc(F)cc3)CC2)cc1 [ASTEMIZOLE]
## Result < 3.00

## Task Requested read-out: pKd. Entry: O=C(CN1CCCCC1)Nc1cc(CN2CCC(O)CC2)cc(Nc2ccnc3cc(Cl)ccc23)c1
## Result 3.00

## Task Requested read-out: pKd. Entry: CCOc1ccc(Nc2ccnc3cc(Cl)ccc23)cc1CN1CCCC1
## Result 3.77
